meta.source: patent US20230016424A1

Experiment: Liver Microsome stability (In Vitro Metabolism)
Format: in vitro ADME
Conditions: Mouse liver microsomes
ASSAY_READOUT: microsomal CLint at 1 µM

# microsomal CLint at 1 µM of C[C@@H]1[C@H](O)[C@@H](C)/C=C/C=C/C=C/C=C/C=C/C=C/C=C/[C@H](OC2O[C@H](C)[C@@H](O)[C@H](N)[C@@H]2O)C[C@@H]2O[C@](O)(C[C@@H](O)C[C@@H](O)[C@H](O)CC[C@@H](O)C[C@@H](O)CC(=O)O[C@H]1C)C[C@H](O)[C@H]2C(=O)O (stereo partly shown) = < 9.6 µL/min/mg

----------
Tested on: C. albicans SN250, C. albicans, C. krusei, C. glabrata, C. tropicalis, A. fumigatus 91, 1163, 1100
Assay: Average MIC over the tested strains
Format: cell-based
Conditions: Table 12, C16 amides of C2'epiAmB
ASSAY_READOUT: Average MIC
// unit must come after the numeric part

Worked examples follow.
| COMPOUND | OBSERVED_MEASUREMENT |
| --- | --- |
| CC1C=CC=CC=CC=CC=CC=CC=CC(OC2OC(C)C(O)C(N)C2O)CC2OC(O)(CC(O)CC(O)C(O)CCC(O)CC(O)CC(=O)OC(C)C(C)C1O)CC(O)C2C(=O)NC1COCC1O (stereo not drawn) [BP] | 1.250 µM |
| CC1C=CC=CC=CC=CC=CC=CC=CC(OC2OC(C)C(O)C(N)C2O)CC2OC(O)(CC(O)CC(O)C(O)CCC(O)CC(O)CC(=O)OC(C)C(C)C1O)CC(O)C2C(=O)NC1CCC1 (stereo not drawn) [BW] | 5.563 µM |

Record CC1C=CC=CC=CC=CC=CC=CC=CC(OC2OC(C)C(O)C(N)C2O)CC2OC(O)(CC(O)CC(O)C(O)CCC(O)CC(O)CC(=O)OC(C)C(C)C1O)CC(O)C2C(=O)NCCC(N)=O (stereo not drawn) [BU] , field Average MIC: 2.563 µM
